# Experimental Details: AUC in Sprague-Dawley rat at 50 mg/kg, iv by LC-MS/MS analysis
# Format: ADME, organism-based
# Parameters: dose 50 mg/kg, route intravenous
# Test Conditions: plasma
Lab note: anything with AUC below 300 ng·h/mL is marked t; values at 300 ng·h/mL or higher are marked f.

INSERT INTO assay_data (smi, class_name) VALUES
  ('CCOC(=O)C1=C[C@@H](OC(CC)CC)[C@H](NC(C)=O)[C@@H](NC(=N)N)C1', 't'),
  ('CCOC(=O)C1=C[C@@H](OC(CC)CC)[C@H](NC(C)=O)[C@@H](N/C(C)=N/O)C1', 'f'),
  ('CCC(CC)O[C@@H]1C=C(C(=O)O)C[C@H](NC(=N)N)[C@H]1NC(C)=O', 'f'),
  ('CCOC(=O)C1=C[C@@H](OC(CC)CC)[C@H](NC(C)=O)[C@@H](NC(N)=NO)C1', 'f'),
  ('CCC(CC)O[C@@H]1C=C(C(=O)O)C[C@H](NC(C)=N)[C@H]1NC(C)=O', 'f'),
  ('Br.CCOC(=O)C1=C[C@@H](OC(CC)CC)[C@H](NC(C)=O)[C@@H](NC(C)=N)C1', 't');
